- PROTOCOL TEXT: CCTE_Deisenroth_DEVTOX-GLR_Pluri_CellCount: Viability Assessment in CCTE's DevTox GLR-Pluri Assay Evaluation of Total Cell Counts, Deisenroth Lab (AID 2284430)
Calls of active or inactive are those of the source. The calls were made as follows: active = hit-call score of the fitted dose curve at least 0.9, where 1 is the maximum; inactive = score below 0.9.
EXPERIMENTAL READOUT: AC50

// below: answered compounds
| COMPOUND | EXPERIMENTAL READOUT | TEST VALUE |
| --- | --- | --- |
| CNC(=O)c1cc(Oc2ccc(NC(=O)Nc3ccc(Cl)c(C(F)(F)F)c3)cc2)ccn1 | AC50 | 184 µM (active) |
| O=c1[nH]c(=O)n([C@H]2C[C@H](O)[C@@H](CO)O2)cc1Br | AC50 | 23.7 µM (active) |
| COc1cc2c(Nc3ccc(Br)cc3F)ncnc2cc1OCC1CCN(C)CC1 | AC50 | inactive |
| Cc1nc(Nc2ncc(C(=O)Nc3c(C)cccc3Cl)s2)cc(N2CCN(CCO)CC2)n1 | AC50 | 0.0132 µM (active) |
| CCN(CC)CCNC(=O)c1c(C)[nH]c(/C=C2\C(=O)Nc3ccc(F)cc32)c1C | AC50 | 1.23 µM (active) |
| O=C(c1ccc(F)cc1)C1CCN(CCn2c(=O)[nH]c3ccccc3c2=O)CC1 | AC50 | inactive |
| Nc1cccc2c1CN(C1CCC(=O)NC1=O)C2=O (centres undefined) | AC50 | inactive |
| O=C1Cc2cc(CCN3CCN(c4nsc5ccccc45)CC3)c(Cl)cc2N1 | AC50 | 4.26 µM (active) |

Note: attention shifts to another entry.
Quick one: AC50 of "CCCCCN=C(N)N/N=C/c1c[nH]c2ccc(OC)cc12" ? 7.83 µM (active)

----------
- Read-out: Collagen I, COL1A1 (gene 1277)
- PROTOCOL TEXT: BSK_MyoF_CollagenI: BioMAP Diversity Plus: MyoF Assay for Collagen I Biomarker Activity (AID 2284238)
- CONDITION DESCRIPTION: primary human lung fibroblasts
Calls of active or inactive are those of the source. The calls were made as follows: active = hit-call score of the fitted dose curve at least 0.9, where 1 is the maximum; inactive = score below 0.9.
Permitted responses: active, inactive

Test call for this compound, please: "COC(=O)/C=C\C(=O)OC" inactive

Test call for this compound, please: CCCCCCC(O)CCCCCCCCCCC(=O)OC (stereo unspecified) inactive

Test call for this compound, please: "CCCCCCCCCCCCCCCCCC[N+](C)(C)C" active

Test call for this compound, please: "Oc1cccc2ccccc12" inactive

Test call for this compound, please: "Sc1nc2ccccc2s1" inactive

Test call for this compound, please: CCCCCCCCCCC1CO1 (stereo unspecified) active

----------
- MEASURED TARGET: Cellular tumor antigen p53 (Homo sapiens)
- PROTOCOL TEXT: TOX21_p53_BLA_p5_ratio: Tox21 HCT-116 p53 Agonism Beta-lactamase Assay, Ratio, Phase 5 (AID 2283599)
Inconclusive results are not listed. Active and inactive are the calls of the source. The calls were made as follows: active = hit-call score of the fitted dose curve at least 0.9, where 1 is the maximum; inconclusive = response in the unintended direction; inactive = score below 0.9.
Permitted responses: yes (1) = active, no (0) = inactive

Test call for this compound, please: "CC[C@H]1OC(=O)[C@H](C)[C@@H](O[C@H]2C[C@@](C)(OC)[C@@H](O)[C@H](C)O2)[C@H](C)[C@@H](O[C@@H]2O[C@H](C)C[C@H](N(C)C)[C@H]2O)[C@](C)(OC)C[C@@H](C)C(=O)[C@H](C)[C@@H](O)[C@]1(C)O" no (0)

Test call for this compound, please: "O=[N+]([O-])c1ccc2[nH]ncc2c1" no (0)

Test call for this compound, please: CC1(C)C(O)C(C)(C)C1O (stereo unspecified) no (0)

Test call for this compound, please: CC(COc1ccc(C(C)(C)C)cc1)OS(=O)OCCCl (stereo unspecified) no (0)

Test call for this compound, please: "C=CCn1cc[n+](C)c1" no (0)

Test call for this compound, please: "COc1cc(Cc2cnc(N)nc2N)cc(OC)c1OC" no (0)

Test call for this compound, please: "C=CCOC(=O)C(=C)C" no (0)

Test call for this compound, please: "O=C(/C=C/c1cccc(F)c1)NC1CC1" no (0)

Test call for this compound, please: "CC[C@@H](C(=O)[C@@H](C)[C@@H](O)[C@H](C)CCc1ccc(C)c(O)c1C(=O)O)[C@H]1O[C@](CC)([C@H]2CC[C@](O)(CC)[C@H](C)O2)C[C@@H]1C" yes (1)

Test call for this compound, please: "CC/C=C\CCCCCO" no (0)

Test call for this compound, please: "CCn1cc(C(=O)O)c(=O)c2cc(F)c(N3CCNCC3)cc21" no (0)
